// reported RP-LC retention time per item
- assay_explanation: gradient 5% acetonitrile 3 min, to 50% in 2 min, to 85% in 15 min, held 3 min, 100 µL/min
- conditions_used: column: Zorbax Extend-C18 2.1 x 50 mm; eluents: water / acetonitrile, 0.1% formic acid

{"columns": ["compound", "RP-LC retention time [s]"],
 "data": [
  ["CCCNc1nc(-c2cccc(Cl)c2)cs1", 1020],
  ["CN(CC1(C)CCOCC1)C(=O)Cc1c(F)cccc1Cl", 863],
  ["COc1ccc(NC(=O)C2CCN(S(=O)(=O)c3c(C)nn(-c4ccccc4)c3C)CC2)c(OC)c1", 940],
  ["COc1ccc(-c2ncc3c(n2)CCN(S(=O)(=O)c2ccc(F)c(C)c2)C3)cc1", 1100],
  ["COc1ccc(C(=O)N2CCC(n3c(-c4ccoc4)nc4cccnc43)C2)cc1F (centres undefined)", 714],
  ["COc1ccccc1CNC(=O)Cn1nc2c(N3CCSCC3)nccn2c1=O", 767],
  ["O=C(C1CCC1)N1CCC(n2cnnc2C2CC2)CC1", 598],
  ["COC(=O)c1ccc(C(=O)NCCCC(=O)Nc2cccc3cccnc23)cc1", 731],
  ["CN(C)S(=O)(=O)c1ccc(-c2nnc(C(=O)N3CCCC3)o2)cc1", 727],
  ["COc1ccc(-c2noc(C3CCCN3C(=O)c3cccs3)n2)cc1 (centres undefined)", 924],
  ["CCc1nc2c(=O)n(CC(=O)N3CCCC(C)C3)nc(C)c2s1 (centres undefined)", 726],
  ["O=C(NC(c1ccccc1)c1nnc(N2CCOCC2)o1)c1cccc(F)c1 (centres undefined)", 758],
  ["O=C(NCCc1csc(C2CCN(C(=O)C3CCCO3)CC2)n1)C1CC1 (centres undefined)", 603],
  ["O=C1CCCCC(C(=O)N2CCc3ccccc32)N1 (centres undefined)", 726],
  ["COc1ccc(CNC(=O)C2(C)CCN(C(=O)Nc3ccc(F)c(Cl)c3)CC2)cc1", 872],
  ["O=C([C@@H]1C[C@H](Oc2ccccc2)CN1C(=O)c1ccsc1)N1CCCC1", 756],
  ["CCOc1ccccc1C(=O)N(CC)c1nc(-c2ccc(C)cc2)cs1", 1420],
  ["COc1ccc(CC(=O)Nc2cccc(-c3cn4cccnc4n3)c2)cc1", 610],
  ["Cc1ccc2[nH]cc(CCN3CC(C(=O)N4CCCCC4)CC3=O)c2c1 (centres undefined)", 768],
  ["CCOC(=O)C1=C(CN2CCN(c3ccccn3)CC2)NC(=O)NC1c1ccc(OC)cc1 (centres undefined)", 612],
  ["CCOc1ccc(CNC(=O)C2CCN(S(=O)(=O)c3ccc4c(c3)CCCC(=O)N4)CC2)cc1", 756],
  ["CC(NC(=O)c1cc(-c2ccc(F)cc2)cn1C)c1ccccn1 (centres undefined)", 722],
  ["COc1cc(OC)c(NC(=O)Cn2c(=O)n(-c3cccc(C)c3)c(=O)c3c2cc(C)n3C)cc1Cl", 871],
  ["CC1CCC2(CC1)NC(=O)N(CC(=O)NCc1ccc3c(c1)OCO3)C2=O (centres undefined)", 749],
  ["CCCNc1cc(N2CCC(CCC(=O)NCC(C)C)CC2)ncn1", 642],
  ["Cc1cnc(-c2cccnc2)n1C1CCN(S(=O)(=O)c2cccnc2)C1 (centres undefined)", 575],
  ["Cn1cc(S(=O)(=O)N2CCCCC2)cc1C(=O)Nc1ccc(F)c(Cl)c1", 1100],
  ["CCc1ccc(NC(=O)C2CCN(C(=O)c3ncn4c3COC(c3ccccc3)C4)CC2)cc1 (centres undefined)", 846],
  ["Cn1cnc2c(C(=O)NCc3ccco3)nn(-c3ccc(Cl)cc3)c2c1=O", 834],
  ["O=c1c2ccccc2c(-c2nc(-c3cccnc3)no2)cn1-c1ccc(F)cc1", 1050],
  ["O=C(Nc1ccc(F)cc1F)N1CC(Cc2nc(-c3cnccn3)no2)C1", 690],
  ["CCSc1nnc(-c2nn(C)c3c2CN(C(=O)c2cccc(F)c2)CC3)n1C", 744],
  ["CC(C)n1cnc(S(=O)(=O)N2CCCC(C(=O)Nc3cccc(F)c3)C2)c1 (centres undefined)", 726],
  ["CC1=C(C(=O)Nc2ccccc2C)C(c2ccc(Cl)cc2Cl)NC(=O)N1 (centres undefined)", 704],
  ["CCc1noc(NC(C)=O)c1-c1ccc(C)c(S(=O)(=O)Nc2c(C)cccc2C)c1", 861],
  ["CC1CCN(S(=O)(=O)c2cccc(-c3nnc(-c4ccc(F)cc4)o3)c2)CC1", 1150],
  ["Cc1cc(N2CCN(C)CC2)nc(N2CCN(C(=O)c3ccc(-c4ccccc4)cc3)CC2)n1", 585],
  ["O=C([C@@H]1C[C@H](Oc2cccnc2)CN1C(=O)c1cnccn1)N1CCCC1", 552],
  ["COC(=O)c1cc(S(=O)(=O)N2CCN(c3ccccn3)CC2)c(C)n1C", 630]
]}

---

// RP-LC retention time lookup, one value per entry
- assay_explanation: gradient 5% acetonitrile 3 min, to 50% in 2 min, to 85% in 15 min, held 3 min, 100 µL/min
- conditions_used: column: Zorbax Extend-C18 2.1 x 50 mm; eluents: water / acetonitrile, 0.1% formic acid

{"columns": ["compound", "RP-LC retention time, s"],
 "data": [
  ["COC(=O)c1ccc2c(C(C)=O)c[nH]c2c1", 642],
  ["COCCn1cc2c3c(cccc31)CN(C(=O)Nc1cc(Cl)c(OC)cc1OC)CC2", 993],
  ["COc1ccc(OC)c(S(=O)(=O)N2CCOc3ccc(NC(=O)C4CC4)cc3C2)c1", 823],
  ["CCn1cc(C)c(C(=O)O)c1CC(=O)N1CCc2ccccc2C1", 780],
  ["Cc1ccc(C)c(N2CCN(c3ccnc(SCC(=O)Nc4cc(Cl)ccc4C)n3)CC2)c1", 952],
  ["Cc1ccc(OCC(=O)N(C)CC2(C)CCOCC2)cc1", 799],
  ["COc1cccc(-c2cc3c(=O)n(Cc4nc(-c5ccc(Br)cc5)no4)ccn3n2)c1", 1140],
  ["O=C(NCc1ccc(F)cc1)C1CCN(c2nnc3c(Cl)cccn23)CC1", 645],
  ["Cc1cccc(N2CCN(c3ccc4cc(S(=O)(=O)N5CCOCC5)ccc4n3)CC2)c1C", 1080],
  ["Cc1ccc2oc(CN3CCN(C(=O)Nc4ccccc4)CC3)nc2c1", 678],
  ["CCOC(=O)Cn1c(=N)n(CCN2CCOCC2)c2ccccc21", 548],
  ["CCCNC(=O)Nc1cc2c(cc1N1CCC(C(=O)OCC)CC1)n(C)c(=O)n2C", 716],
  ["O=S(=O)(Cc1ccccc1)N1CC(c2nc(Cc3ccccc3)no2)C1", 1010],
  ["Cc1ccc(N2CC(c3noc(-c4ccc(C)nc4)n3)CC2=O)cc1 (stereo not given)", 799],
  ["CCOC(=O)C(=O)NCc1nnnn1C1CCCCC1", 655],
  ["Cc1ccccc1Nc1c(-c2ccc(N(C)C)cc2)nc2cccc(C)n12", 811],
  ["Cc1ccc(F)c(NS(=O)(=O)c2ccc3c(c2)C(=O)N(C)c2ncccc2O3)c1", 924],
  ["CC12CC(Br)(Br)C(=O)C3C1CCCC32", 1100],
  ["Oc1cc2c(c(Cl)c1O)CCNC[C@@H]2c1ccccc1", 648],
  ["COc1cccc(NC(=O)N2CCC3(CC2)NC(=O)c2ccc(F)cc2N3C)c1", 723],
  ["CCc1nc(-c2cc(S(=O)(=O)NCC(=O)N3CCOCC3)c(C)s2)no1", 753],
  ["CCOC(=O)c1noc2nc(C)nc(NCCCN(C)c3ccccc3)c12", 897],
  ["CCN(CC)S(=O)(=O)c1ccc2c(c1)N(CC(=O)NC1CCCC1)C(=O)C1CCCCN21 (stereo not given)", 927],
  ["O=C(Cn1nc2c3cc(F)ccc3ncn2c1=O)Nc1ccc(Br)cc1", 745],
  ["O=C(c1cnccn1)N1CCC2(CC1)N=C(c1ccccc1)NO2", 641],
  ["Cn1cnc(S(=O)(=O)N2CC[C@@H]3COCCN(Cc4ccccc4)[C@@H]3C2)c1", 586],
  ["CCCNC(=O)C1CCCN(c2nc3ncn(CC(=O)NC4CCc5ccccc54)c(=O)c3s2)C1 (stereo not given)", 709],
  ["COc1ccc(CNC(=O)Cn2cccc2-c2nnc(-c3ccccc3)o2)cc1", 862],
  ["CCN(CC)S(=O)(=O)N1CCC(C(=O)NCCc2ccc(OC)c(OC)c2)CC1", 751],
  ["O=C(NCCc1csc(-c2cccc(F)c2)n1)c1ccc2c(c1)OCO2", 847],
  ["O=c1ccc(-c2ccc(F)cc2)nn1Cc1nc(-c2cccc(Cl)c2)no1", 1090],
  ["CCCN(C)c1nccn2c(=O)n(CC(=O)Nc3cccc(Br)c3)nc12", 730],
  ["O=C([C@@H]1C[C@H](F)CN1C(=O)c1ccc(F)cc1)N1CCOCC1", 608],
  ["Cc1cc(Cl)ccc1NS(=O)(=O)c1cc(-c2nc(C(C)(C)C)cs2)cs1", 1360],
  ["O=C(NCCCN1CCCC1)c1cc2n(n1)CCCN(Cc1ccc(Cl)cc1)C2=O", 640],
  ["Cc1ccn2cc(-c3ccc(NC(=O)Nc4ccccc4)cc3)nc2n1", 640],
  ["CCOc1ccc(N2CCn3c2nn(Cc2ccc(C(=O)OC)o2)c(=O)c3=O)cc1", 731],
  ["CC(=O)N1CCc2cc(N3CC(C(=O)NC4CCCC4)CC3=O)ccc21 (stereo not given)", 642],
  ["O=S(=O)(c1ccccc1)N1CCC(c2noc(-c3ccc(Cl)cc3)n2)CC1", 1170],
  ["O=C(O)CC1(CC(=O)Nc2nc(-c3cccc4ccccc34)cs2)CCCC1", 1040]
]}
